tested on: Aspergillus fumigatus IAM 2034; experiment: MIC, two-fold agar dilution, A. fumigatus IAM 2034; format: cell-based; conditions: IAM2034; Table 3; Aspergillus fumigatus IAM 2034, YMA; read-out: MIC Af-3
Measurement label: MIC (µg/mL)
Dear colleague, please return just the value in µg/mL, with no unit written.

Here are 4 molecules together with their reported answers.
- Molecule: "COc1cc(O)c2c(c1)C(=O)c1c(cc3c(c1O)-c1c(cc(C)c(C(=O)N[C@H](C)C(=O)O)c1O)[C@H](O[C@@H]1O[C@H](C)[C@H](N(C)C#N)[C@H](O[C@@H]4OC[C@@H](O)[C@H](O)[C@H]4O)[C@H]1O)[C@H]3O)C2=O [KHM-1, 4'-N-Cyanogradimicin A]"
  Experimental target: "Aspergillus fumigatus IAM 2034"
  MIC [µg/mL]: 12.5
- Molecule: "COc1cc(O)c2c(c1)C(=O)c1c(cc3c(c1O)-c1c(cc(C)c(C(=O)N[C@H](CO)C(=O)O)c1O)[C@H](O[C@@H]1O[C@H](C)[C@H](N)[C@H](O[C@@H]4OC[C@@H](O)[C@H](O)[C@H]4O)[C@H]1O)[C@H]3O)C2=O [Pradimicin FA-2, reference compound]"
  Experimental target: "Aspergillus fumigatus IAM 2034"
  MIC [µg/mL]: 1.6
- Molecule: "COc1cc(O)c2c(c1)C(=O)c1c(cc3c(c1O)-c1c(cc(C)c(C(=O)N[C@H](CO)C(=O)O)c1O)[C@H](O[C@@H]1O[C@H](C)[C@H](NC#N)[C@H](O[C@@H]4OC[C@@H](O)[C@H](O)[C@H]4O)[C@H]1O)[C@H]3O)C2=O [KHM-4, 4'-N-Cyanopradimicin FA2]"
  Experimental target: "Aspergillus fumigatus IAM 2034"
  MIC [µg/mL]: 6.3
- Molecule: "COc1cc(O)c2c(c1)C(=O)c1c(cc3c(c1O)-c1c(cc(C)c(C(=O)N[C@H](C)C(=O)O)c1O)[C@H](O[C@@H]1O[C@H](C)[C@H](N(C)N=O)[C@H](O[C@@H]4OC[C@@H](O)[C@H](O)[C@H]4O)[C@H]1O)[C@H]3O)C2=O [KHM-6, 4'-N-Nitrosopradimicin A]"
  Experimental target: "Aspergillus fumigatus IAM 2034"
  MIC [µg/mL]: 3.1

Specify reported MIC for the molecule shown: CN[C@@H]1[C@H](O[C@@H]2OC[C@@H](O)[C@H](O)[C@H]2O)[C@@H](O)[C@H](O[C@H]2c3cc(C)c(C(=O)N[C@H](CO)C(=O)O)c(O)c3-c3c(cc4c(c3O)C(=O)c3cc(OC)cc(O)c3C4=O)[C@@H]2O)O[C@@H]1C [Pradimicin FA-1, reference compound]
1.6

Specify reported MIC for the molecule shown: COc1cc(O)c2c(c1)C(=O)c1c(cc3c(c1O)-c1c(cc(C)c(C(=O)N[C@H](C)C(=O)O)c1O)[C@H](O[C@@H]1O[C@H](C)[C@H](NC#N)[C@H](O[C@@H]4OC[C@@H](O)[C@H](O)[C@H]4O)[C@H]1O)[C@H]3O)C2=O [KHM-2, 4'-N-Cyanopradimicin C]
3.1

Specify reported MIC for the molecule shown: COc1cc(O)c2c(c1)C(=O)c1c(cc3c(c1O)-c1c(cc(C)c(C(=O)N[C@H](C)C(=O)O)c1O)[C@H](O[C@@H]1O[C@H](C)[C@H](N)[C@H](O[C@@H]4OC[C@@H](O)[C@H](O)[C@H]4O)[C@H]1O)[C@H]3O)C2=O [Pradimicin C]
3.1

meta.source: patent US6281342A
